target: Chymotrypsinogen B (Homo sapiens)
Sequence (P17538 34-164 limits assumed, other chains not shown): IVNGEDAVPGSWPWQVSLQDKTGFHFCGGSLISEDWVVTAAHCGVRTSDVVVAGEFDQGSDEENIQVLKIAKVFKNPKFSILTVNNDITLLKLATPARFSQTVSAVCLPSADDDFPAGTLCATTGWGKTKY
Sequence (P17538 167-263 limits assumed, other chains not shown): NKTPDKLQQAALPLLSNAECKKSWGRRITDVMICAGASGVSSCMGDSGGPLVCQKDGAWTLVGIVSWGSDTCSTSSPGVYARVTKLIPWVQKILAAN
MEASURE: Ki (µM)
Report the value in µM with no unit label.

Problem: What value of measured Ki is listed for O=C(N[C@@H](Cc1ccccc1)[C@@H]1CO1)C1CCCN1C(=O)c1ccccc1 (single isomer, unassigned) ?
Solution: 820
